System: NCI-H358
PROTOCOL_TEXT: relative viability (nuclei count vs DMSO), 5 days (fraction); higher = more cells survive
CONDITION_DESCRIPTION: first compound 0.08 µM
QUANTITY: relative viability
Answer as a number with no unit attached.

Sample records with relative viability:
1) CCCCCCCCCCCC1=C(O)C(=O)C=C(O)C1=O [Embelin] + Cc1nc(Nc2ncc(C(=O)Nc3c(C)cccc3Cl)s2)cc(N2CCN(CCO)CC2)n1 [Dasatinib] (partner 0.075 µM)	0.205
2) CCCCCCCCCCCC1=C(O)C(=O)C=C(O)C1=O [Embelin] + O=C(CCCCCCC(=O)Nc1ccccc1)NO [Vorinostat] (partner 1 µM)	0.699

Return value of relative viability for input CCCCCCCCCCCC1=C(O)C(=O)C=C(O)C1=O [Embelin] + CC(=O)Nc1cccc(-n2c(=O)n(C3CC3)c(=O)c3c(Nc4ccc(I)cc4F)n(C)c(=O)c(C)c32)c1 [Trametinib] (partner 0.02 µM) , no commentary.
0.137

Return value of relative viability for input CCCCCCCCCCCC1=C(O)C(=O)C=C(O)C1=O [Embelin] + O=C(c1cc(Cc2n[nH]c(=O)c3ccccc23)ccc1F)N1CCN(C(=O)C2CC2)CC1 [Olaparib] (partner 8 µM) , no commentary.
0.554

Return value of relative viability for input CCCCCCCCCCCC1=C(O)C(=O)C=C(O)C1=O [Embelin] + Nc1nc2[nH]cc(CCc3ccc(C(=O)N[C@@H](CCC(=O)O)C(=O)O)cc3)c2c(=O)[nH]1 [Pemetrexed] (partner 0.2 µM) , no commentary.
0.217

Return value of relative viability for input CCCCCCCCCCCC1=C(O)C(=O)C=C(O)C1=O [Embelin] + C[C@]1(O)C[C@@H](c2nc(-c3ccc4ccc(-c5ccccc5)nc4c3)c3c(N)nccn32)C1 [Linsitinib] (partner 1 µM) , no commentary.
0.691
